Tested on: PK-15 cells
MEASUREMENT PARAMETERS: pig
PROPERTY: CC50 (µM)
Dear colleague, please return just the value in µM, with no unit written.

Fill in reported CC50 for this entry: O=c1c(O)c(-c2ccc(O)c(O)c2)oc2cc(O)cc(O)c12
890

* * *

Test system: Pseudorabies virus (Ra strain)
TEST: microbe, parasite or virus in culture
Assay type: cell-based
MEASUREMENT PARAMETERS: Suid alphaherpesvirus 1, PK-15, 1 h
PROPERTY: IC50 (µM)
Dear colleague, please return just the value in µM, with no unit written.

Fill in reported IC50 for this entry: O=c1cc(-c2ccc(O)c(O)c2)oc2cc(O)cc(O)c12
36.9

Fill in reported IC50 for this entry: O=c1c(O)c(-c2ccc(O)cc2)oc2cc(O)cc(O)c12
25.6

Fill in reported IC50 for this entry: O=C1c2c(O)cc(O)cc2O[C@H](c2cc(O)c(O)c(O)c2)[C@H]1O [Dihydromyricetin]
161

Fill in reported IC50 for this entry: O=c1c(O)c(-c2cc(O)c(O)c(O)c2)oc2cc(O)cc(O)c12
42.7

Fill in reported IC50 for this entry: COc1cc(C2Oc3cc([C@H]4Oc5cc(O)cc(O)c5C(=O)[C@@H]4O)ccc3OC2CO)ccc1O (stereo partly shown)
203

* * *

TEST: in vitro
MEASUREMENT PARAMETERS: pig
CC50 strictly under 300 µM means label 1; at 300 µM or over means label 0.

Some solved cases for reference:
COMPOUND | ASSIGNED CLASS
O=c1c(O)c(-c2cc(O)c(O)c(O)c2)oc2cc(O)cc(O)c12 | label 0
COc1ccc(-c2coc3cc(O)ccc3c2=O)cc1 | label 1
C[C@@H]1O[C@@H](OC[C@H]2O[C@@H](Oc3c(-c4ccc(O)c(O)c4)oc4cc(O)cc(O)c4c3=O)[C@H](O)[C@@H](O)[C@@H]2O)[C@H](O)[C@H](O)[C@H]1O | label 0
COc1cc(C2Oc3cc([C@H]4Oc5cc(O)cc(O)c5C(=O)[C@@H]4O)ccc3OC2CO)ccc1O (some centres unmarked) | label 0
OC[C@H]1O[C@@H](Oc2cc(O)cc(/C=C/c3ccc(O)cc3)c2)[C@H](O)[C@@H](O)[C@@H]1O | label 0

Does the reported CC50 of the following compound sit strictly below 300 µM? O=c1c2cc(O)c(O)cc2oc2cc(O)c([C@@H]3O[C@H](CO)[C@@H](O)[C@H](O)[C@H]3O)c(O)c12
label 0

Does the reported CC50 of the following compound sit strictly below 300 µM? O=c1c(O)c(-c2ccc(O)c(O)c2)oc2cc(O)cc(O)c12
label 0

Does the reported CC50 of the following compound sit strictly below 300 µM? O=c1c(O)c(-c2ccc(O)cc2)oc2cc(O)cc(O)c12
label 1

Does the reported CC50 of the following compound sit strictly below 300 µM? O=c1cc(-c2ccccc2)oc2cc(O)cc(O)c12
label 1

Does the reported CC50 of the following compound sit strictly below 300 µM? O=c1cc(-c2ccc(O)c(O)c2)oc2cc(O)cc(O)c12
label 1

Does the reported CC50 of the following compound sit strictly below 300 µM? O=c1c(O)c(-c2ccc(O)c(O)c2)oc2cc(O)ccc12
label 0

Does the reported CC50 of the following compound sit strictly below 300 µM? O=C1c2c(O)cc(O)cc2O[C@H](c2cc(O)c(O)c(O)c2)[C@H]1O [Dihydromyricetin]
label 0

Does the reported CC50 of the following compound sit strictly below 300 µM? COc1ccc(-c2oc3c(CC=C(C)C)c(O[C@@H]4O[C@H](CO)[C@@H](O)[C@H](O)[C@H]4O)cc(O)c3c(=O)c2O[C@@H]2O[C@@H](C)[C@H](O)[C@@H](O)[C@H]2O)cc1
label 0

* * *

System: PK-15 cells
Reported CC50 values for the following molecules.
Dear colleague, please return just the value in µM, with no unit written.

The following molecules have reported results that may help.
SMILES NOTATION | SCALE UNIT | QUANTITATIVE RESULT
COc1cc2c(cc1OC)-c1cc3ccc(OC)c(OC)c3c[n+]1CC2 | µM | 1250
COc1ccc(-c2coc3cc(O)cc(O)c3c2=O)cc1 | µM | 382
O=C1C[C@@H](c2ccc(O)cc2)Oc2cc(O)ccc21 | µM | 790

Alright, here's another molecule for you.
Fill in reported CC50 for this entry: O=c1cc(-c2ccccc2)oc2cc(O)c(O)c(O)c12
563

* * *

Test system: cGAS/STING signaling pathway
Format: cell-based, pigs
PROPERTY: mRNA expression level of cGAS

SMILES NOTATION | PROPERTY | RESULT
O=c1cc(-c2ccc(O)c(O)c2)oc2cc(O)cc(O)c12 | mRNA expression level of cGAS | significantly enhance
O=c1cc(-c2ccccc2)oc2cc(O)c(O)c(O)c12 | mRNA expression level of cGAS | significantly enhance
O=C1C[C@@H](c2ccc(O)cc2)Oc2cc(O)cc(O)c21 | mRNA expression level of cGAS | significantly enhance
O=c1c(O)c(-c2cc(O)c(O)c(O)c2)oc2cc(O)cc(O)c12 | mRNA expression level of cGAS | significantly enhance

Each recorded value in this set is attributed to paper PMC11784099.
